Target: human TLR9 (Homo sapiens, UniProt Q9NR96)
Construct: host or cells: HEK-Blue cells
Sequence (Q9NR96 26-1032): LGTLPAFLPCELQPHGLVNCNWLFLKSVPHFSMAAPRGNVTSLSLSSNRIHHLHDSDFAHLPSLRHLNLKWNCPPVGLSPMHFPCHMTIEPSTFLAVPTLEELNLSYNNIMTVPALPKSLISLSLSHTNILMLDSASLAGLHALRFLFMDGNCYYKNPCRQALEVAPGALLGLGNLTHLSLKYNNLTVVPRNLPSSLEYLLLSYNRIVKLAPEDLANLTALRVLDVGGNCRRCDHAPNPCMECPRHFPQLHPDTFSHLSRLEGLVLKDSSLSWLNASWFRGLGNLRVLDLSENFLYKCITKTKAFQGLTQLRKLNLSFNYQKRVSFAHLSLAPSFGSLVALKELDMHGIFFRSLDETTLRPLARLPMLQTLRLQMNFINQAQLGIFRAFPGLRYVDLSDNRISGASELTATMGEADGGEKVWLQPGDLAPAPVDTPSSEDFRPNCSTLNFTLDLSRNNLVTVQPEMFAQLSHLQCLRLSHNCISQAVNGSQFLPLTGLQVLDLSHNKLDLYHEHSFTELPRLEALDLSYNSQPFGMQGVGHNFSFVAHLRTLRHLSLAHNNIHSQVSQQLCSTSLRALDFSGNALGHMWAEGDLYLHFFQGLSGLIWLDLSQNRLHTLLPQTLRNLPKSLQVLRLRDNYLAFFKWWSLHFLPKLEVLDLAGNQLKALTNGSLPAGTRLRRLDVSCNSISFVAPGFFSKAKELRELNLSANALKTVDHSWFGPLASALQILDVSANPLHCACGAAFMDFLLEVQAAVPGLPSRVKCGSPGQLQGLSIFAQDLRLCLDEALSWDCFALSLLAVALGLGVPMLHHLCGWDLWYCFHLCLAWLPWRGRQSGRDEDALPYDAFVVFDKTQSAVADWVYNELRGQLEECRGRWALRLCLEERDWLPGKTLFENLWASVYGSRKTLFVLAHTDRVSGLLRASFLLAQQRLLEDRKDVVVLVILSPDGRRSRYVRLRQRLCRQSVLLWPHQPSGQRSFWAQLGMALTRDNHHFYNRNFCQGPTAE
Assay: TLR9 inhibition reporter assay (HEK-Blue cells, SEAP reporter)
Type: cell-based
Details: HEK-Blue cells overexpressing human TLR9; stimulated with ODN2006 5 nM; SEAP read after 22 hour; dose range 0.05 nM-50 μM
Description: HEK-Blue™-cells (Invivogen) overexpressing human TLR7, TLR8 or TLR9 receptors were used for screening inhibitors of these receptors using an inducible SEAP (secreted embryonic alkaline phosphatase) reporter gene under the control of the IFN-β minimal promoter fused to five NF-κB and AP-1-binding sites. […] The percent inhibition is determined as the % reduction in the HEK-Blue signal present in wells treated with agonist plus DMSO alone compared to wells treated with a known inhibitor.
Field: label. Allowed values: Met (IC50 < 0.2 µM) or Not met (IC50 >= 0.2 µM).

query-smiles | class
CC(C)N1CCC(c2ccc(-c3ccc4[nH]c(=O)c(-c5cccc(C#N)c5)cc4c3)cc2)CC1 | Met
CC(C)N1CCN(c2ccc(-c3ccc4[nH]c(=O)c(-c5ccc(N6CC[C@@H](O)C6)cc5)cc4c3)cc2)CC1 | Not met
CC(C)N1CCN(c2ccc(-c3ccc4[nH]c(=O)c(-c5ccc(S(N)(=O)=O)cc5)cc4c3)cc2)CC1 | Met
CC(C)N1CCN(c2ccc(-c3ccc4[nH]c(=O)c(-c5c(F)cc(F)cc5F)cc4c3)cc2)CC1 | Not met
CC(C)N1CCN(c2ccc(-c3ccc4[nH]c(=O)c(-c5cccc(NS(C)(=O)=O)c5)cc4c3)cc2)CC1 | Met
CC(C)N1CCN(c2ccc(-c3ccc4[nH]c(=O)c(-c5ccc(N6CC[C@H](F)C6)cc5)cc4c3)cc2)CC1 | Not met
Cn1c(=O)c(-c2ccc(S(C)(=O)=O)cc2)cc2cc(-c3ccc(C4CCN(C5COC5)CC4)cc3)ccc21 | Not met
CC(C)N1CCN(c2ccc(-c3ccc4[nH]c(=O)c(-c5ccccc5Cl)cc4c3)cc2)CC1 | Not met
CC(C)N1CCN(c2ccc(-c3ccc4c(c3)cc(-c3ccc(N(C)S(C)(=O)=O)cc3)c(=O)n4C)cc2)CC1 | Not met

====

target: UniProt:Q9NYK1; test: TLR7 inhibition reporter assay (HEK-Blue cells, SEAP reporter); details: HEK-Blue cells overexpressing human TLR7; stimulated with gardiquimod 7.5 μM; SEAP read after 22 hour; dose range 0.05 nM-50 μM
observation-type: IC50

compound | observation-type | result
CS(=O)(=O)Nc1cccc(-c2cc3cc(-c4ccc(C5CCN(C6COC6)CC5)cc4)ccc3[nH]c2=O)c1 [Example 98] | IC50 | ≥ 50 µM
CC(C)N1CCN(c2ccc(-c3ccc4[nH]c(=O)c(-c5ccc(C(=O)N6CCOCC6)cc5)cc4c3)cc2)CC1 [Example 55] | IC50 | ≥ 50 µM
CC(C)N1CCN(c2ccc(-c3ccc4[nH]c(=O)c(-c5ccc(C(=O)O)cc5)cc4c3)cc2)CC1 [Example 62] | IC50 | ≥ 50 µM

====

target: UniProt Q9NYK1; experiment: TLR7 inhibition reporter assay (HEK-Blue cells, SEAP reporter); conditions: HEK-Blue cells overexpressing human TLR7; stimulated with gardiquimod 7.5 μM; SEAP read after 22 hour; dose range 0.05 nM-50 μM
IC50 for assorted compounds
observation-type: IC50

compound | result
O=c1[nH]c2ccc(-c3ccc(C4CCN(C5COC5)CC4)cc3)cc2cc1-c1ccc2nccnc2c1 [Example 94] | ≥ 50 µM
CC(C)N1CCN(c2ccc(-c3ccc4[nH]c(=O)c(-c5ccc(S(N)(=O)=O)cc5)cc4c3)cc2)CC1 [Example 11] | ≥ 50 µM
COC(=O)c1ccc(-c2cc3cc(-c4ccc(N5CCN(C(C)C)CC5)cc4)ccc3[nH]c2=O)cc1 [Example 28] | ≥ 50 µM
CC(C)N1CCC(N2CCC(c3ccc4[nH]c(=O)c(-c5ccccc5)cc4c3)CC2)CC1 [Example 64] | 1.48 µM
CC(C)N1CCN(c2ccc(-c3ccc4[nH]c(=O)c(-c5ccc(N6CC[C@H](F)C6)cc5)cc4c3)cc2)CC1 [Example 22] | ≥ 50 µM
CC(C)N1CCN(c2ccc(-c3ccc4[nH]c(=O)c(-c5cccc(C(F)(F)F)c5)cc4c3)cc2)CC1 [Example 45] | ≥ 50 µM
CC(C)N1CCC(c2ccc(-c3ccc4c(c3)cc(-c3ccc(N(C)C)cc3)c(=O)n4C)cc2)CC1 [Example 96] | 17.3 µM
CC(C)N1CCC(c2ccc(-c3ccc4[nH]c(=O)c(-c5ccc6nccnc6c5)cc4c3)cc2)CC1 [Example 93] | 1.87 µM
CC(C)N1CCN(c2ccc(-c3ccc4[nH]c(=O)c(-c5ccc(N6CC[C@@H](O)C6)cc5)cc4c3)cc2)CC1 [Example 61] | ≥ 50 µM
CCC(=O)Nc1ccc(-c2cc3cc(-c4ccc(N5CCN(C(C)C)CC5)cc4)ccc3[nH]c2=O)cc1 [Example 52] | 15.1 µM
NS(=O)(=O)c1ccc(-c2cc3cc(-c4ccc(C5CCN(C6COC6)CC5)cc4)ccc3[nH]c2=O)cc1 [Example 92] | ≥ 50 µM
CC(C)N1CCN(c2ccc(-c3ccc4[nH]c(=O)c(-c5cccc(OC(F)(F)F)c5)cc4c3)cc2)CC1 [Example 46] | ≥ 50 µM

====

target: human TLR7 (Homo sapiens); experiment: TLR7 inhibition reporter assay (HEK-Blue cells, SEAP reporter); conditions: HEK-Blue cells overexpressing human TLR7; stimulated with gardiquimod 7.5 μM; SEAP read after 22 hour; dose range 0.05 nM-50 μM
Sequence (Q9NYK1 27-1049): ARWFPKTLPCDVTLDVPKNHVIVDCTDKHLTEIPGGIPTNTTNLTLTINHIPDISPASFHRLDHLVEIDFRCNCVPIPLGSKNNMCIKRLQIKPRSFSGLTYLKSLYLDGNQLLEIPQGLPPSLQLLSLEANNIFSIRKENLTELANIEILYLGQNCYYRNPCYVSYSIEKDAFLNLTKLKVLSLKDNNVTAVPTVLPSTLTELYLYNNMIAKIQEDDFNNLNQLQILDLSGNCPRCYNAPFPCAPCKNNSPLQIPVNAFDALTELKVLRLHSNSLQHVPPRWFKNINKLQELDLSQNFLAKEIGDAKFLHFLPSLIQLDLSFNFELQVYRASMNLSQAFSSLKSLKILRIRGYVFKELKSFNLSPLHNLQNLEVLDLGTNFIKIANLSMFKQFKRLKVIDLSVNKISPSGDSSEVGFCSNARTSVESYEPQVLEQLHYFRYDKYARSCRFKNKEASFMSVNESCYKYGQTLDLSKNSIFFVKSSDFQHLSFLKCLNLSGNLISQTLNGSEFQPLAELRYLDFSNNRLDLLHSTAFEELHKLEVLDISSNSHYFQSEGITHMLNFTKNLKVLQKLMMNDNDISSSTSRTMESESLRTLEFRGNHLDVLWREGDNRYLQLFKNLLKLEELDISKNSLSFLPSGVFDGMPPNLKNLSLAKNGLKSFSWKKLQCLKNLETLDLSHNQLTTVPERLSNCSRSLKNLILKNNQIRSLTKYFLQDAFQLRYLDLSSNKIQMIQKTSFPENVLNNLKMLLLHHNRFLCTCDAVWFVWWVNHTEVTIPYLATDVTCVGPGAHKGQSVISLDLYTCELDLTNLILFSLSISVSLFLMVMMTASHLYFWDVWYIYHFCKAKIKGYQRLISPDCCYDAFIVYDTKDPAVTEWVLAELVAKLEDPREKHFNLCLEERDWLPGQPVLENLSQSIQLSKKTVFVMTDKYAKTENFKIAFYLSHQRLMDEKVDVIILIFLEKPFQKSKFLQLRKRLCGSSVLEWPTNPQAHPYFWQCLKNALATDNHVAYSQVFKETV
pIC50: −log10 of the molar value.

query-smiles | pIC50
CC(C)N1CCN(c2ccc(-c3ccc4[nH]c(=O)c(-c5c(F)c(F)c(F)c(F)c5F)cc4c3)cc2)CC1 | ≤ 4.30
CCc1c(-c2ccc(S(C)(=O)=O)cc2)c(=O)n(C)c2ccc(-c3ccc(C4CCN(C5COC5)CC4)cc3)cc12 | ≤ 4.30
CC(C)N1CCN(c2ccc(-c3ccc4[nH]c(=O)c(-c5ccc(OC(F)F)cc5)cc4c3)cc2)CC1 | ≤ 4.30
